- SYSTEM_UNDER_TEST: T1, full length recombinant human 2N4R tau (amino acids 1-441) (human, UniProt P10636 1-758)
- T1 construct: Bought (rPeptide); recombinant, non-phosphorylated; also called recombinant tau
- MEASUREMENT_DESCRIPTION: SPR Biacore SCK, IgG on Protein A, tau analyte
Recorded Relative KD for the following binders
Value expressed in fold vs VH0VK0; do not type the unit.

| BINDER | REPORTED_MEASUREMENT |
| --- | --- |
| Clone 28 (VH4Vκ4), humanised variant of clone #28, human IgG1 (antibody, V domains shown, also called VH4VK4; VH4Vk4) VH: QVQLQESGPGLVKPSETLSLTCTVSGFSLNNYDMSWVRQAPGKGLEWIGTVSTTYRRYYASWAKGRFTISKDTSSTTVDLQMTSLTAEDTATYFCAASGIWGRGTLVTVSS VL: DIQMTQSPSTLSASVGDRVTITCQSSQRVYSNYLAWYQQKPGQPPKRLIFLASTLESGVPSRFSGSGSGTEFTLTISSLQPDDFATYYCAGTYTGSIWAFGGGTKVEIK | 1.08 |
| Clone 15 (VH1Vκ2), humanised variant of clone #28, human IgG1 (antibody, V domains shown, also called VH1VK2) VH: QSLQESGGGLVKPSETLSLTCTVSGFSLNNYDMSWVRQAPGKGLEWIGTVSTTYRRYYASWAKGRFTISKTSSTTVDLKMTSLTAEDTATYFCAASGIWGRGTLVTVSS VL: AQVLTQSPSTLSASVGDRVTITCQSSQRVYSNYLAWYQQKPGQPPKRLIFLASTLESGVPSRFSGSGSGTEFTLTISSLQPDDFATYYCAGTYTGSIWAFGGGTKVEIK | 0.97 |
| Clone 18 (VH2Vκ1), humanised variant of clone #28, human IgG1 (antibody, V domains shown, also called VH2VK1) VH: QSLQESGPGLVKPSETLSLTCTVSGFSLNNYDMSWVRQAPGKGLEWIGTVSTTYRRYYASWAKGRFTISKTSSTTVDLQMTSLTAEDTATYFCAASGIWGRGTLVTVSS VL: AQVLTQSTSPLSASVGDRVTITCQSSQRVYSNYLAWYQQKPGQPPKRLIFLASTLESGVPSRFSGSGSGTEFTLTISSLQCDDFATYYCAGTYTGSIWAFGGGTEVVIK | 1.09 |

Shift focus to the following entry.
I'd like to know its Relative KD. The binder in question is Clone 21 (VH2Vκ5), humanised variant of clone #28, human IgG1 (antibody, V domains shown, also called VH2VK5) VH: QSLQESGPGLVKPSETLSLTCTVSGFSLNNYDMSWVRQAPGKGLEWIGTVSTTYRRYYASWAKGRFTISKTSSTTVDLQMTSLTAEDTATYFCAASGIWGRGTLVTVSS VL: DIQMTQSPSTLSASVGDRVTITCQSSQRVSSSYLAWYQQKPGQPPKRLIFLASTLESGVPSRFSGSGSGTEFTLTISSLQPDDFATYYCAGTYTGSIWAFGGGTKVEIK 3

Entry source: patent US20220265819A1
